Values compiled from ChEMBL document CHEMBL2057163.

- measurement.description: Clearance in rat at 10 mg/kg, po
- Type: ADME, organism-based
- Set-up: dose 10 mg/kg, route oral
- recorded.conditions: in vivo
We begin with a simple list: items and their reported CL/F.
Give the number; mL/min/kg is assumed, so skip it.

>>> df
                                item_smiles  recorded_endpoint  observed
0  CCc1cc2cc(-c3c(C)nc(NCC(F)(F)F)nc3N[C@@H]3C[C@H](CO)[C@@H](O)[C@H]3O)oc2cn1.Cl               CL/F        27

query: Which value of CL/F has been reported for CCOc1cc2cc(-c3c(C)nc(NCC4CC4)nc3N[C@@H]3C[C@H](CO)[C@@H](O)[C@H]3O)oc2c(C)n1.Cl in the records?
result: 8

---

- Test system: Hepatitis C virus
- measurement.description: Antiviral activity against Hepatitis C virus 1b con1 infected in human hepatoma cells assessed as decrease in replicon RNA level after 3 days by RT-PCR analysis
- Format: functional, organism-based, Hepacivirus hominis
- recorded.conditions: Con1, 72 h
We begin with a simple list: items and their reported pEC50.
By convention, pEC50 is the negative base-10 log of a molar concentration.

Worked examples follow.
In [3]: df
Out[3]:
                                item_smiles        test_target  observed
0  CCOCCNc1nc(C)c(-c2cc3cc(CC)ncc3o2)c(N[C@@H]2C[C@H](CO)[C@@H](O)[C@H]2O)n1  Hepatitis C virus      8.40
1  CCOc1cc2cc(-c3c(C)nc(Nc4ccccc4)nc3N[C@@H]3C[C@H](CO)[C@@H](O)[C@H]3O)oc2c(C)n1  Hepatitis C virus      6.82
2  CCOc1cc2cc(-c3c(C)nc(NC)nc3N[C@@H]3C[C@H](CO)[C@@H](O)[C@H]3O)oc2c(C)n1  Hepatitis C virus      7.30
3  CCc1nccc2cc(-c3c(Cl)nc(N)nc3N[C@@H]3C[C@H](CO)[C@@H](O)[C@H]3O)oc12  Hepatitis C virus      7.70
4  CCOc1cc2cc(-c3c(C)nc(NCC4CC4)nc3N[C@@H]3C[C@H](CO)[C@@H](O)[C@H]3O)oc2c(C)n1  Hepatitis C virus      7.70
5  Cc1cc2cc(-c3c(Cl)nc(N)nc3N[C@@H]3C[C@H](CO)[C@@H](O)[C@H]3O)oc2c(C)n1.Cl  Hepatitis C virus      8.00
6  CCc1cc2cc(-c3c(C)nc(NCC(C)C)nc3N[C@@H]3C[C@H](CO)[C@@H](O)[C@H]3O)oc2cn1  Hepatitis C virus      7.10

query: Which value of pEC50 has been reported for CCc1cc2cc(-c3c(Cl)nc(N)nc3N[C@@H]3C[C@H](CO)[C@@H](O)[C@H]3O)oc2cn1 in the records?
result: 8.00

---

We begin with a simple list: items and their reported CL/F.
- measurement.description: Clearance in dog at 3 mg/kg, po
- Type: ADME, organism-based, Canis lupus familiaris
- Design: dose 3 mg/kg, route oral
- recorded.conditions: in vivo
Note: state the figure and append the unit.

                                item_smiles  recorded_endpoint       observed
0  CCOc1cc2cc(-c3c(C)nc(NCC4CC4)nc3N[C@@H]3C[C@H](CO)[C@@H](O)[C@H]3O)oc2c(C)n1.Cl               CL/F  9.5 mL/min/kg

For the next question, use this compound.
query: Which value of CL/F has been reported for CCc1cc2cc(-c3c(C)nc(NCC(F)(F)F)nc3N[C@@H]3C[C@H](CO)[C@@H](O)[C@H]3O)oc2cn1.Cl in the records?
result: 13 mL/min/kg

---

- measurement.description: Cytotoxicity against human hepatoma cells after 3 days by MTS assay
- Format: cell-based
recorded.endpoint: CC50 at 72 h (µM)
Give the number; µM is assumed, so skip it.

>>> print(df.to_string())
                                item_smiles  observed
0  Cc1cc2cc(-c3c(Cl)nc(N)nc3N[C@@H]3C[C@H](CO)[C@@H](O)[C@H]3O)oc2c(C)n1.Cl        22

query: Which value of CC50 at 72 h has been reported for Nc1nc(Cl)c(-c2cc3cccnc3o2)c(N[C@@H]2C[C@H](CO)[C@@H](O)[C@H]2O)n1 in the records?
result: 19

query: Which value of CC50 at 72 h has been reported for COc1cc(CNc2nc(C)c(-c3cc4cc(OC)nc(C)c4o3)c(N[C@@H]3C[C@H](CO)[C@@H](O)[C@H]3O)n2)cc(OC)c1 in the records?
result: 25

query: Which value of CC50 at 72 h has been reported for CNc1nc(C)c(-c2cc3cc(OC)nc(C)c3o2)c(N[C@@H]2C[C@H](CO)[C@@H](O)[C@H]2O)n1 in the records?
result: 25

query: Which value of CC50 at 72 h has been reported for CCOc1cc2cc(-c3c(C)nc(NCC4CC4)nc3N[C@@H]3C[C@H](CO)[C@@H](O)[C@H]3O)oc2c(C)n1 in the records?
result: 25

query: Which value of CC50 at 72 h has been reported for CCOCCNc1nc(C)c(-c2cc3cc(CC)ncc3o2)c(N[C@@H]2C[C@H](CO)[C@@H](O)[C@H]2O)n1 in the records?
result: 16

query: Which value of CC50 at 72 h has been reported for Nc1nc(Cl)c(-c2cc3cnccc3o2)c(N[C@@H]2C[C@H](CO)[C@@H](O)[C@H]2O)n1 in the records?
result: 25

query: Which value of CC50 at 72 h has been reported for CCc1cc2cc(-c3c(C)nc(NCc4cc(OC)cc(OC)c4)nc3N[C@@H]3C[C@H](CO)[C@@H](O)[C@H]3O)oc2cn1 in the records?
result: 20

query: Which value of CC50 at 72 h has been reported for CCc1cc2cc(-c3c(C)nc(NCC(C)(C)C)nc3N[C@@H]3C[C@H](CO)[C@@H](O)[C@H]3O)oc2cn1 in the records?
result: 11

query: Which value of CC50 at 72 h has been reported for CNc1nc(Cl)c(-c2cc3cc(OC)nc(C)c3o2)c(N[C@@H]2C[C@H](CO)[C@@H](O)[C@H]2O)n1 in the records?
result: 25

query: Which value of CC50 at 72 h has been reported for CCc1cc2cc(-c3c(C)nc(NCC(C)C)nc3N[C@@H]3C[C@H](CO)[C@@H](O)[C@H]3O)oc2cn1 in the records?
result: 12

query: Which value of CC50 at 72 h has been reported for Nc1nc(Cl)c(-c2cc3ncccc3o2)c(N[C@@H]2C[C@H](CO)[C@@H](O)[C@H]2O)n1 in the records?
result: 21

---

- measurement.description: Half life in rat at 10 mg/kg, po
- Assay type: ADME, organism-based
- Set-up: dose 10 mg/kg, route oral
- recorded.conditions: in vivo
recorded.endpoint: half-life (h)
Give the number; h is assumed, so skip it.

>>> df
                                item_smiles  value_unit  observed
0  CCOc1cc2cc(-c3c(C)nc(NCC4CC4)nc3N[C@@H]3C[C@H](CO)[C@@H](O)[C@H]3O)oc2c(C)n1.Cl           h       3.3

query: Which value of half-life has been reported for CCc1cc2cc(-c3c(C)nc(NCC(F)(F)F)nc3N[C@@H]3C[C@H](CO)[C@@H](O)[C@H]3O)oc2cn1.Cl in the records?
result: 4.2

---

- Tested on: Liver
- measurement.description: Drug uptake in rat liver assessed per gram of tissue at 10 mg/kg, po measured at 6 hrs
- Assay type: ADME, organism-based
- Design: dose 10 mg/kg, route oral
- recorded.conditions: in vivo
recorded.endpoint: log10 liver concentration (log10 of the value in ng/g)
Hello, just confirming the data are log10 of liver concentration with units of ng/g.

Worked examples follow.
                                item_smiles  test_target  observed
0  CCc1cc2cc(-c3c(C)nc(NCC(F)(F)F)nc3N[C@@H]3C[C@H](CO)[C@@H](O)[C@H]3O)oc2cn1.Cl        Liver      3.24
1  CCOc1cc2cc(-c3c(C)nc(NCc4cc(OC)cc(OC)c4)nc3N[C@@H]3C[C@H](CO)[C@@H](O)[C@H]3O)oc2c(C)n1.Cl        Liver      2.38
2  CCOc1cc2cc(-c3c(C)nc(NCC(C)(C)C)nc3N[C@@H]3C[C@H](CO)[C@@H](O)[C@H]3O)oc2c(C)n1.Cl        Liver      3.37
3  CNc1nc(Cl)c(-c2cc3cc(OC)nc(C)c3o2)c(N[C@@H]2C[C@H](CO)[C@@H](O)[C@H]2O)n1.Cl        Liver      2.44
4  CCc1cc2cc(-c3c(C)nc(NCC(C)(C)C)nc3N[C@@H]3C[C@H](CO)[C@@H](O)[C@H]3O)oc2cn1.Cl        Liver      2.50

query: GET /values?readout=log10 liver concentration&system=Liver&item= COc1cc(CNc2nc(C)c(-c3cc4cc(OC)nc(C)c4o3)c(N[C@@H]3C[C@H](CO)[C@@H](O)[C@H]3O)n2)cc(OC)c1.Cl
result: 2.25

query: GET /values?readout=log10 liver concentration&system=Liver&item= CCc1cc2cc(-c3c(C)nc(NCCCC(F)(F)F)nc3N[C@@H]3C[C@H](CO)[C@@H](O)[C@H]3O)oc2cn1.Cl
result: 3.00
